These data points were gathered from patent EP4682166A1.

# system.under.test: T1, human NMI (N-myc Interacting protein), recombinant protein (human, UniProt Q13287 1-307, limits assumed)
# T1 construct: Gene ID: 9111; also called hNMI; antigen
# T1 sequence (looked up): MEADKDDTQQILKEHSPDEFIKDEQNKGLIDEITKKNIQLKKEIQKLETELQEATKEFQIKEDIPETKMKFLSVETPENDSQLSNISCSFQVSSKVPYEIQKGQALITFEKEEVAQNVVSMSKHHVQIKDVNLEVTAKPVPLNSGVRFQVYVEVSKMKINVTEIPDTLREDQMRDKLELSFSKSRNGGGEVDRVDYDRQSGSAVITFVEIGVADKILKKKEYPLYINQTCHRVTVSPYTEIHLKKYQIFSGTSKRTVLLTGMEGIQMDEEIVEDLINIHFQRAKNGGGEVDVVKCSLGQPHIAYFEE
# measurement.notes: sandwich ELISA; detection 94C4-1-biotin 1µg/mL; hNMI 12,500.000 pg/mL
measured.endpoint: OD450 (OD450)
Unit OD450 implied. Number only.

Check out these entries, answers already filled in.
monoclonal antibody 240B10-1 (antibody, V domains shown, Rabbit monoclonal antibody) VH: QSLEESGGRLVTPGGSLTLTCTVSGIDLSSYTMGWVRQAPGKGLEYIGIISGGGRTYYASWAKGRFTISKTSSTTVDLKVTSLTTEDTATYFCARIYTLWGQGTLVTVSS VL: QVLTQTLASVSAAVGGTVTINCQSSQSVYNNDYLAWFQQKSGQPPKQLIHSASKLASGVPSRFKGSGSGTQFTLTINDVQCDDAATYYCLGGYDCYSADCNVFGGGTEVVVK :: 2.17
monoclonal antibody 98G10 (antibody, V domains shown, Rabbit monoclonal antibody) VH: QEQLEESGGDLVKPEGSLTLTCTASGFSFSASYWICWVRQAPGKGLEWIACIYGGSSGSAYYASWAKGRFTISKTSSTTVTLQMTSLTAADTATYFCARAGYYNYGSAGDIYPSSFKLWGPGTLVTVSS VL: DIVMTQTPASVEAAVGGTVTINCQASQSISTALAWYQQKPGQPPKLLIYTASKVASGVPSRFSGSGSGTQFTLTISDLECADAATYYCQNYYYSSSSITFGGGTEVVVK :: 2.31
monoclonal antibody B-8 (antibody, V domains shown, Rabbit monoclonal antibody; also called B8-1) VH: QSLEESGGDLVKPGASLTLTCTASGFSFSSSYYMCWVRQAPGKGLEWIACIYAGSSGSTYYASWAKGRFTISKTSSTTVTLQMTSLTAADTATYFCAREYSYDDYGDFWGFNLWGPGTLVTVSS VL: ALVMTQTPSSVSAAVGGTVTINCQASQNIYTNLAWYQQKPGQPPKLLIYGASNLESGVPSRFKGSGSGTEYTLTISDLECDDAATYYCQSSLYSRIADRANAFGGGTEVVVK :: 2.03

Query binder follows.
// OD450 lookup, key: monoclonal antibody 39B4 (antibody, V domains shown, Rabbit monoclonal antibody; also called 39B4-1) VH: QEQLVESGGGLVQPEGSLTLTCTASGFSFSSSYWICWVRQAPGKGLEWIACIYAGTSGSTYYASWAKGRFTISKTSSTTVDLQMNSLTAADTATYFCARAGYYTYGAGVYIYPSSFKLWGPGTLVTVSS VL: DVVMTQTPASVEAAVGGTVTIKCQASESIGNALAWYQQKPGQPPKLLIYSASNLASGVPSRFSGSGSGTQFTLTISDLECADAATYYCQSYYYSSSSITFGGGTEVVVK
2.15
